Origin of measurements: ChEMBL document CHEMBL5154936

# Assay method text: Volume of distribution at steady state in BALB/c mouse at 1 mg/kg, iv measured upto 24 hrs by LC-MS/MS analysis
# Assay type: ADME, organism-based
# Protocol conditions: in vivo, read-out: Vdss
Item-by-item account of Vd

{"Structure smiles string": "O=C(O)c1ccc(CNC(=O)c2c(Cc3ccc(F)cc3)sc3c2CCOC3)cc1", "Vd / L/kg": 6.14}
{"Structure smiles string": "C[C@H](NC(=O)c1c(Cc2cccc(C(F)(F)F)c2)sc2c1CCOC2)c1ccc(C(=O)O)cc1", "Vd / L/kg": 7.39}

* * *

Item-by-item account of pIC50
# System: Panc02
# Assay method text: Cytotoxicity against mouse Panc02 cells assessed as reduction in cell viability incubated for 72 hrs by CCK-8 assay
# Protocol conditions: Panc02, 72 h
pIC50: −log10 of the molar value.
Property label: pIC50

{"Structure smiles string": "C[C@H](NC(=O)c1c(Cc2ccc(C(F)(F)F)cc2)sc2c1CCOC2)c1ccc(C(=O)O)cc1", "Experimental system": "Panc02", "Assay result": "< 4.00"}
{"Structure smiles string": "C[C@H](NC(=O)c1c(CCc2ccc(F)cc2)sc2c1CCOC2)c1ccc(C(=O)O)cc1", "Experimental system": "Panc02", "Assay result": "< 4.00"}
{"Structure smiles string": "C[C@H](NC(=O)c1c(Cc2cccc(C(F)(F)F)c2)sc2c1CCOC2)c1ccc(C(=O)O)cc1", "Experimental system": "Panc02", "Assay result": "< 4.00"}
